Cited source for all entries: paper PMC10397247

Biological target: T1, 4H3782-AA
T1 chain: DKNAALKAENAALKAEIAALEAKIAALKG
Experiment: two-hybrid library CCmax;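 note: natural log of median RNA to DNA barcode read ratio; higher means stronger binding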
Details: mean of both orientations
Use -1 as the dividing line for interaction score, with the line itself on the Criterion met side and lower values as Criterion not met.

Worked set:
> print(dat)
                                     binder         labelclass
1  DKIAALEAKNAALEAEIAALKAEIAALKG [4H2442-AA]  Criterion not met
2  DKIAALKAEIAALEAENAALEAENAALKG [4H2580-AA]  Criterion not met
3  DENAALEAKIAALKAEIAALKAKNAALKG [4H1360-AA]      Criterion met
4  DKIAALKAEIAALEAKNAALKAKIAALEG [4H2621-AA]  Criterion not met
5  DENAALKAKIAALKAKNAALKAEIAALEG [4H1913-AA]  Criterion not met
6  DENAALKAEIAALEAENAALEAKIAALKG [4H1558-AA]      Criterion met

Is reported interaction score greater than or equal to -1 here: DEIAALEAENAALEAEIAALKAENAALKG [4H140-AA]
Criterion met

Is reported interaction score greater than or equal to -1 here: DKNAALKAEIAALEAKIAALKAKIAALEG [4H3629-AA]
Criterion met

Is reported interaction score greater than or equal to -1 here: DKNAALEAEIAALEAKNAALKAEIAALEG [4H3129-AA]
Criterion not met

Is reported interaction score greater than or equal to -1 here: DKIAALKAKNAALKAEIAALKAENAALKG [4H3020-AA]
Criterion not met
